Assignment: determine reported relative binding activity (% of WT) for the given binders.
- Tested System: T1, EGFI-Cr1 T49A (human, UniProt P16422 24-63)
- T1 construct: not shown: the constant region of human immunoglobulin gamma 1 heavy chain (Cr1) fused at the C-terminus
- T1 chain: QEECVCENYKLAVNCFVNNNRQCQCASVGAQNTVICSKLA
- Measurement Description: direct ELISA, coated EGFI-Cr1 fusion, 0.1 µg/ml antibody
State the answer as a number, implicitly in %.

Query: Would you kindly share the measured relative binding activity (% of WT) for murine monoclonal antibody 2D11 (antibody, mouse IgG1, V domains shown, Mouse IgG1, kappa, from hybridoma; also called m322-2D11.19) VH: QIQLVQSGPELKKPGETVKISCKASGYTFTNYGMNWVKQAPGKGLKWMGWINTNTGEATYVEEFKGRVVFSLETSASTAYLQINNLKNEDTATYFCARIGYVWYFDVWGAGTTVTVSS VL: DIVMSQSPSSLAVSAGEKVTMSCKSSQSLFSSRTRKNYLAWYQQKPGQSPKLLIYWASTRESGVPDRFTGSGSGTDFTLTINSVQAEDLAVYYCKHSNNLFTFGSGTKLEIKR ?
Result: 95

Query: And for murine monoclonal antibody 12H8 (antibody, mouse IgG2a, V domains shown, Mouse IgG2a, kappa, from hybridoma; also called m342-12H8.3; m12H8) VH: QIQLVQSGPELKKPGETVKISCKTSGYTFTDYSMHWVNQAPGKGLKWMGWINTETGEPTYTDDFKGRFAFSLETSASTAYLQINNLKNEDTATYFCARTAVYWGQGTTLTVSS VL: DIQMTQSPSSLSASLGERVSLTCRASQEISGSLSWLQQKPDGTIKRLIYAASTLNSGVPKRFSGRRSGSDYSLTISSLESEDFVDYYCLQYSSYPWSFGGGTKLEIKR ?
Result: 94

Query: Entry to check: murine monoclonal antibody 4D2 (antibody, mouse IgG1, V domains shown, Mouse IgG1, kappa, from hybridoma; also called m338-4D2.20) VH: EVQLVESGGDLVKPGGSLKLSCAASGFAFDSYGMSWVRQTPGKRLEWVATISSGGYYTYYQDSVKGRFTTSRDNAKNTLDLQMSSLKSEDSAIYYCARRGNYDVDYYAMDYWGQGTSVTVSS VL: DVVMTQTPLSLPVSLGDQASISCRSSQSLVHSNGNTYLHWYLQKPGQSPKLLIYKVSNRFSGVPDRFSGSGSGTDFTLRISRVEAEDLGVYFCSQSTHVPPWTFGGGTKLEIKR
Result: 63

Query: Now the binder murine monoclonal antibody 1G10 (antibody, mouse IgG1, V domains shown, Mouse IgG1, kappa, from hybridoma; also called m290-1G10) VH: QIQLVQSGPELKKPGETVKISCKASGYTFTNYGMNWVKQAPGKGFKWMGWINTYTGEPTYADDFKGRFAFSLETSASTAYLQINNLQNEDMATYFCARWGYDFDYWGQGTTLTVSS VL: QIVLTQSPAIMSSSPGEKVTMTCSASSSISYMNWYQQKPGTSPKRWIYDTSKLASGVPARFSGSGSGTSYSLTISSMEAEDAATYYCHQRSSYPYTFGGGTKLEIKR
Result: 17

Query: What about murine monoclonal antibody 6D11 (antibody, mouse IgG1, V domains shown, Mouse IgG1, kappa, from hybridoma; also called m338-6D11.8) VH: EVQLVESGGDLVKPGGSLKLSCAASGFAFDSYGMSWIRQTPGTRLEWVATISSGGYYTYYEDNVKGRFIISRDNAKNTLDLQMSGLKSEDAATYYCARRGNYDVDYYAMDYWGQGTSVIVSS VL: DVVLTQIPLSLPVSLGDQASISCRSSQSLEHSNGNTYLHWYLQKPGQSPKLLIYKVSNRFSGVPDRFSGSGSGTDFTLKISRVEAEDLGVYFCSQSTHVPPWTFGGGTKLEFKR ?
Result: 67

Query: Okay, and murine monoclonal antibody 1F10 (antibody, mouse IgG1, V domains shown, Mouse IgG1, lambda 1, from hybridoma; also called m338-1F10.3) VH: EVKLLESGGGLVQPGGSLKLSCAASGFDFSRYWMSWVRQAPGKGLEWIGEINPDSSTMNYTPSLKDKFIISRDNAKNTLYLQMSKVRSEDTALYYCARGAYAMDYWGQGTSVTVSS VL: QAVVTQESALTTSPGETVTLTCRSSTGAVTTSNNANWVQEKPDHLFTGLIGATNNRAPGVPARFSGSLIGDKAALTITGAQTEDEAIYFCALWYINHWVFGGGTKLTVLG ?
Result: 94
